- target entity: Proteasome subunit beta (Trypanosoma cruzi) (UniProt O96673)
- Sequence (whole entry): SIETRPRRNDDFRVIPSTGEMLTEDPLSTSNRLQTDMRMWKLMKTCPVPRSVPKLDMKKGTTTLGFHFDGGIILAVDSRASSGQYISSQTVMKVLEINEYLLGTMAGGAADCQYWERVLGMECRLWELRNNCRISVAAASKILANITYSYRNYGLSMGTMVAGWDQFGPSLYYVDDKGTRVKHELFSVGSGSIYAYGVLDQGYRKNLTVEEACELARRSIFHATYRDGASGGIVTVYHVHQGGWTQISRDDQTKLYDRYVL
- measurement protocol: Trypanosoma cruzi proteasome chymotrypsin-like activity (TcProtChymo) assay. Note: in the data most compounds retested in dose-response had high values.
- Type: functional
- Parameters: scale not given: direction of the effect not stated beside the values
- test settings: 9.37 µM
So I've got a bunch of compounds here, and I need their Percent Effect values.
Answers are plain numbers, in %.

CC(C)n1ncc2c1NC(=O)CSC2C(C)(C)C (stereo unspecified); 8.69
CN1CCN(Cc2nc3ccccc3[nH]2)[C@H]2CS(=O)(=O)C[C@H]21; 13.1
Cc1nc(C)n(C2CCCN(C(=O)COCc3ccccc3)C2)n1 (stereo unspecified); -4.22
O=C(CSC1=NS(=O)(=O)c2cc(F)ccc2N1)c1ccc(Cl)cc1; 6.44

Provide reported Percent Effect for each item, in the same order as listed.
1. Cc1ccoc1-c1nnc(CNCC2CCCN2c2cccnn2)o1 (stereo unspecified)
2. Cc1ccccc1C1(CNc2nnc(C)c(C)c2C#N)CCOCC1

Completion:
9.33
9.31

Provide reported Percent Effect for each item, in the same order as listed.
1. Cc1ccc(CN(Cc2ccccn2)C2CC(C)(C)NC(C)(C)C2)s1
2. Cc1nc(C)n(CC2CN(c3ncnc4[nH]ccc34)CCO2)n1 (stereo unspecified)
3. CCN(CC1CN(Cc2ncc[nH]2)CCO1)c1cccnn1 (stereo unspecified)
4. CC(C)N1CCC(NCc2cccnc2N(C)Cc2ccccc2)CC1

Completion:
1: 8.27; 2: 6; 3: 16.2; 4: 4.01

Prompt: Consider the compound CCCn1[nH]cc/c1=N\C(=O)CN1CCn2c(nnc2C2CC2)C1 and give its measured Percent Effect.
Completion: 16.5

====

So I've got a bunch of compounds here, and I need their Percent Effect values.
- Test system: Trypanosoma cruzi
- measurement protocol: Trypanosoma cruzi phosphomannomutase and mannose-1-phosphate guanylyltransferase assay
- Assay type: functional
- Design: scale not given: direction of the effect not stated beside the values
- test settings: 10 µM
Numbers only, in %.

Provide reported Percent Effect for each item, in the same order as listed.
1. CC(C)NC(=O)N1CCN(S(=O)(=O)C2CC2)CC2(CNC(=O)C2)C1 (centres undefined)
2. CC(=O)NCC1CCN(CC2CCOc3ccccc3C2)CC1 (centres undefined)
3. O=C(NS(=O)(=O)c1ccc2c(c1)OCCO2)c1ccc(Br)cc1F
4. O=C(CN1CCCCCCC1=O)NCc1ccccn1
5. Cc1cc(CNC(=O)N2CCN(c3ccccc3)CC2)no1
6. Cc1ccc(N2CC[C@H](OCC3CC3)[C@@H]2Cc2cnn(C)c2)nn1
7. Cc1cnc(N2CCn3cc(CNC(=O)CC4CC4)nc3C2)nc1
8. CCn1c(CN(C)C)nnc1C1CCN(Cc2ccccc2)CC1

Completion:
1. 4.63
2. 1.85
3. -2.36
4. 2.78
5. 0
6. -0.195
7. -2.76
8. 5.61

Provide reported Percent Effect for each item, in the same order as listed.
1. Cc1cnn(CC(C)NCc2nc(-c3ccco3)no2)c1 (centres undefined)
2. CCN1CCOC(CNCc2ccccc2OCc2ccccn2)C1 (centres undefined)
3. CN(C)C(=O)CN1CCC2(CCN(Cc3nccs3)CC2)C1=O
4. O=C1CC(c2ccncc2)c2c(c(C(=O)O)cn2-c2ccc(F)cc2)N1 (centres undefined)

Completion:
1. 7.09
2. -4.39
3. -9.46
4. -3.14
